Provenance of the data: paper PMC4632357

# Test system: CYP3A
# runDescription: In vitro rat liver microsome experiment, CYP3A (probe MDZ)
# Assay type: in vitro ADME
# conditions: probe midazolam (MDZ) 5 μM; rat liver microsomes; MDZ 5 μM; GraphPad Prism 5.0
endpointName: IC50 at 15 min

Determine its reported IC50 at 15 min: COc1cc(-c2oc3cc(OC)c(OC)c(O)c3c(=O)c2OC)ccc1O
3.38 µM

* * *

# targetDesc: CYP1A2 (Rattus norvegicus, UniProt P04799)
# Sequence (P04799 1-513): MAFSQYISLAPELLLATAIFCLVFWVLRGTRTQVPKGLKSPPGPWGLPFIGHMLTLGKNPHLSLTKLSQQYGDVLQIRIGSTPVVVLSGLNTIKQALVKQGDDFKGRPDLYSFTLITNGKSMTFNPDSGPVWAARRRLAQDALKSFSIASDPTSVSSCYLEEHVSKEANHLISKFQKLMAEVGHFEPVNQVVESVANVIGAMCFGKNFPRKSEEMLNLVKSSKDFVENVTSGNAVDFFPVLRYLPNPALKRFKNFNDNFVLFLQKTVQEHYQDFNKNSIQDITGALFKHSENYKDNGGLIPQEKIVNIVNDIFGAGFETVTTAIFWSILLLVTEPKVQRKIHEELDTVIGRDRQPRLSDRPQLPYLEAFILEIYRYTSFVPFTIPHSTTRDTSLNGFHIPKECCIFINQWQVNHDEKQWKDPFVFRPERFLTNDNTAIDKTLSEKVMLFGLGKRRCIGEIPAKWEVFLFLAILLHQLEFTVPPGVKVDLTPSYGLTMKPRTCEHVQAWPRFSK
endpointName: pKi
One number for each entry, as −log10 of the molar value.

Determine its reported pKi: COc1cc(-c2oc3cc(OC)c(OC)c(O)c3c(=O)c2OC)ccc1O [CHR, chrysosplenetin]
5.39
